tested on: MS2 coat protein; experiment: apparent KD of MS2 coat protein; designed switch direction (-1 OFF switch, 1 ON switch): 1; higher = weaker reporter binding; settings: input ligand: none
Given measured apparent KD of MS2 coat protein, output condition met if it is greater than or equal to 200 nM and condition not met if not.

Worked examples follow.
>  <sequence-code>
AAACAUGAGGAUCACCCAUGUCGAUUAAAACCCUAAUCUACUCAGGAUAUCCGAAUGCGCGUUUCGGAGAAGGGAGAAAUGUGA [Isessoreri] (Eterna round: R96, puzzle: Same State NG 3)

>  <class-label>
condition not met

$$$$
>  <sequence-code>
UAGCUCGUGUGAGGAUAUGCCGCCGUUUCGGCUGCAGAAGGUGCUACGUUACAUGAGGAUCACCCAUGUCUCUGUUGUUUCGUG [salish99_SSNG1_r04_957] (Eterna round: R96, puzzle: Same State NG 1)

>  <class-label>
condition not met

$$$$

Exercise: Would you say GGAUGAUUGACAGGAUAUCAUUUGUAAAUUCGUUGAGAAGGGUCGAUUACUUACACGACGUGUUACAUGAGGAUCACCCAUGUU [SameState NG1 #4] (Eterna round: R96, puzzle: Same State NG 1) shows apparent KD of MS2 coat protein at minimum 200 nM?
Solution: condition not met

Exercise: Would you say CGUCCAGCCUGAGCUGGACAAAAGCAUGUACAUGAGGAUCACCCAUGUUCAUGUACAAGCUUUUUGCUCGUCUUACC [salish99_208a_r3_094x] (Eterna round: R96, puzzle: Sensor for hsa-mir-208a) shows apparent KD of MS2 coat protein at minimum 200 nM?
Solution: condition met

Exercise: Would you say GGUGACUUAAGAGGAUAUCCCGUAACAUUCGUCGAUACGAGACAUGAGGAUCACCCAUGUGAAAUGGAGAAGGCUUUCGCAAAG [Eternabot solution 48] (Eterna round: R96, puzzle: Same State NG 2) shows apparent KD of MS2 coat protein at minimum 200 nM?
Solution: condition not met

====

system: MS2 coat protein; assay: apparent KD of MS2 coat protein; designed switch direction (-1 OFF switch, 1 ON switch): -1; higher = weaker reporter binding; settings: input ligand: FMN 200 uM
Given measured apparent KD of MS2 coat protein, output 1.0 if it is greater than or equal to 40 nM and 0.0 if not.

>  <sequence-code>
CCAAGAAUAGGAUAUACACCAUGUCAGCUUCUAUACAACGCACAUGAGGAUCACCCAUGUAGAAGGGUUCUCUC [Exclusion-2-#3] (Eterna round: R97, puzzle: Exclusion 2)

>  <class-label>
1.0

$$$$

Exercise: Would you say ACAUGAGGAUCACCCAUGUGAAAAGAAUGGCUGACACAGAGAUAGGAUAUGUGUGCAUAUCUAACACAGAAGGGUCAUGACUGG [Deportation 80 - Jieux - Exclusion NG 3] (Eterna round: R96, puzzle: Exclusion NG 3) shows apparent KD of MS2 coat protein at minimum 40 nM?
Solution: 1.0

Exercise: Would you say GCAAGCUUUUGCUCGUCUUACAUGAGGAUCACCCAUGUCGGGCCCGGGCUUCGUGGCCGGGCCCGCCGGGCGCCGGG [-37, -64.6 kcal, A 10%] (Eterna round: R97, puzzle: Sensor, turn-off variant 1) shows apparent KD of MS2 coat protein at minimum 40 nM?
Solution: 1.0

Exercise: Would you say UAUGGUUAAGUCAGGAUAUGCACGCAGAGAACAAAGCAGAAGGGACAUGAGGAUCACCCAUGUAAAGUCGUGUU [Ex4 #77] (Eterna round: R97, puzzle: Brourd's mod of Exclusion 4) shows apparent KD of MS2 coat protein at minimum 40 nM?
Solution: 0.0

Exercise: Would you say GAUAGAGCAGGAUAUCGAGAUCCGCACAUGAGGAUCACCCAUGUUCGGUCGAAAGACCGACGAGAAGGGCUCUAUC [Omei Ex5 E8] (Eterna round: R97, puzzle: Exclusion 5) shows apparent KD of MS2 coat protein at minimum 40 nM?
Solution: 1.0
